Assay target: Cruzipain (Trypanosoma cruzi, UniProt P25779)
Sequence (P25779 whole entry): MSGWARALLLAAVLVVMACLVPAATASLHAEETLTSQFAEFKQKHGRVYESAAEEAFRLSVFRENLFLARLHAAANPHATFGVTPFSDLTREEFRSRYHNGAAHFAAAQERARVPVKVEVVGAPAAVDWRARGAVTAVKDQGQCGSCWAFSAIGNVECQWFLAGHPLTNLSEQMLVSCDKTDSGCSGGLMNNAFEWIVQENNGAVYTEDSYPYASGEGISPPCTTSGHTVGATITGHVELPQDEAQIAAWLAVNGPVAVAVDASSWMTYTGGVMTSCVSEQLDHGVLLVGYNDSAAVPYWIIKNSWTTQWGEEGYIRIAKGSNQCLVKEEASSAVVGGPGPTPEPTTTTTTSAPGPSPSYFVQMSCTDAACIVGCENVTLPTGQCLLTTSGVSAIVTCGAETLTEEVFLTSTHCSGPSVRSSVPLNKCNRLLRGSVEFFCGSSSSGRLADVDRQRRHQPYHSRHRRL
Method description: Inhibition of recombinant Trypanosoma cruzi Cruzipain using Z-Phe-Arg-AMC as substrate preincubated for 5 mins followed by substrate addition by spectrofluorometry analysis
Reported IC50 by item:

# Smiles structure, Assay readout, Result
measured = [
    ("C/C(=N\\N=C(\\N)S)c1cccc(Br)c1", "IC50", "110 nM"),
]

# ---- query compound ----
INPUT: Tell me its IC50 given "CC/C(=N\N=C(\N)S)c1ccc(Cl)c(Cl)c1" as the entry.
OUTPUT: 24.5 nM
